SYSTEM TESTED: Human immunodeficiency virus type 1 integrase (Human immunodeficiency virus 1, UniProt Q7ZJM1)
Sequence (Q7ZJM1 whole entry): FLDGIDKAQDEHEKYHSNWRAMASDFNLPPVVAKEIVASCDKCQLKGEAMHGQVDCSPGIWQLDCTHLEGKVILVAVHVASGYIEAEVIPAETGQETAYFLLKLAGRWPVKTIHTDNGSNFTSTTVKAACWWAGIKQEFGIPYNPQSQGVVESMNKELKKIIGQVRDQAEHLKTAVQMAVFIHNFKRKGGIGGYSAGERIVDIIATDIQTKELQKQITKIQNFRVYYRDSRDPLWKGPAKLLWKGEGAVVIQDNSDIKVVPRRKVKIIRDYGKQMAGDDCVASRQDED
ASSAY TEXT: Inhibition of wild-type HIV1 integrase 3'-processing activity using [32P]-5'-end-labeled 5'-GTGTGGAAAATCTCTAGCAGT-3' as substrate after 1 hr
ENDPOINT: IC50

Observe how each entry below is paired with its result.
CS(=O)(=O)Nc1cc(O)c(O)c(C(=O)NCc2ccc(F)cc2)c1 ... > 100 µM
CC(=O)Nc1cc(O)c(O)c(C(=O)NCc2ccc(F)cc2)c1 ... 55 µM
O=C(O)c1c(O)cccc1OCc1ccc(F)cc1 ... > 100 µM
CNC(=O)Cc1ccccc1CNC(=O)c1cccc(O)c1O ... > 100 µM
N#Cc1cc(O)c(O)c(C(=O)NCc2ccc(F)cc2)c1 ... 75 µM

Provide reported IC50 for each item, in the same order as listed.
1. O=C(NC1CCNCC1)c1cccc(O)c1O
2. CC(C)(C)NS(=O)(=O)c1cc(O)c(O)c(C(=O)NCc2ccc(F)cc2)c1

["> 100 µM", "70 µM"]

For each of the molecules below, state IC50.
1. CN(C)Cc1ccc(C(=O)NCc2ccc(F)cc2)c(O)c1O
2. O=C(NO)c1cc(OCc2ccc(F)cc2)ccc1O
3. O=C(NCc1ccc(-c2cccs2)cc1)c1cccc(O)c1O
4. O=C(O)c1cc(OCc2ccccc2)ccc1O
5. O=C(NO)c1cccc(OCc2ccc(F)cc2)c1O
6. O=C(O)c1c(O)cccc1OCc1ccc2ccccc2c1
7. O=C(NO)c1c(O)cccc1OCc1ccc(F)cc1

1: > 100 µM; 2: > 100 µM; 3: > 100 µM; 4: > 100 µM; 5: > 100 µM; 6: > 100 µM; 7: > 100 µM

Quick request: IC50 for each listed item, please.
1. O=C(O)c1ccc(OCc2ccccc2)cc1O
2. O=C(NCCc1c[nH]c2ccccc12)c1cccc(O)c1O

1: > 100 µM; 2: 100 µM

====

SYSTEM TESTED: UniProt Q7ZJM1
ASSAY TEXT: Inhibition of wild-type HIV1 integrase strand transfer activity using [32P]-5'-end-labeled 5'-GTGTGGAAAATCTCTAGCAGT-3' as substrate after 1 hr
Give measured pIC50 for each item. Keep answers brief.
One number for each entry, as −log10 of the molar value.

Field: example entries. Status: answers known.
O=C(NCc1ccco1)c1cccc(O)c1O ... 4.82
CNC(=O)c1cc(F)ccc1CNC(=O)c1cccc(O)c1O ... 4.00
O=C(O)c1cccc(OCc2ccc3ccccc3c2)c1O ... 3.85
O=C(NO)c1c(O)cccc1OCc1ccc(F)cc1 ... 4.01

Provide each entry's pIC50 from the list below.
1. O=C(NCC1CCCCC1)c1cccc(O)c1O
2. N#Cc1cc(O)c(O)c(C(=O)NCc2ccc(F)cc2)c1
3. CNC(=O)Cc1ccccc1CNC(=O)c1cccc(O)c1O
4. O=C(NCc1ccc(F)c(F)c1)c1cccc(O)c1O

[4.74, 4.66, 4.25, 4.64]

Provide the reported pIC50 of each entry below, same order.
1. O=C(NO)c1ccc(OCc2ccc(F)cc2)cc1O
2. O=C(NCc1ccc(C(F)(F)F)cc1)c1cc(S(=O)(=O)N2CCCCC2)cc(O)c1O
3. O=C(Nc1ccc2[nH]ccc2c1)c1cccc(O)c1O
4. O=C(NO)c1cc(OCc2ccc(F)cc2)ccc1O
5. O=C(NCc1ccc(F)cc1)c1cc(S(=O)(=O)N2CCCCC2)cc(O)c1O
6. O=C(NCc1ccc(F)cc1)c1cccc(OCc2ccccc2)c1O
7. O=C(O)c1c(O)cccc1OCc1ccc2ccccc2c1

1. 4.00
2. 4.96
3. 4.24
4. 4.07
5. 5.30
6. 3.95
7. 3.73

For every item in the list below, what is its measured pIC50?
1. CN(C)Cc1ccc(C(=O)NCc2ccco2)c(O)c1O
2. CNS(=O)(=O)c1cc(O)c(O)c(C(=O)NCc2ccc(F)cc2)c1

1: 4.41; 2: 4.36

====

SYSTEM TESTED: Human immunodeficiency virus type 1 integrase (Human immunodeficiency virus 1)
ASSAY TEXT: Inhibition of wild-type HIV1 integrase strand transfer activity using [32P]-5'-end-labeled 5'-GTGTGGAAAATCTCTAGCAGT-3' as substrate after 1 hr
ENDPOINT: IC50

Example compounds with recorded IC50:
O=C(NCc1cccs1)c1cc(S(=O)(=O)N2CCCCC2)cc(O)c1O ... 44 µM
O=C(NCc1ccco1)c1cc(S(=O)(=O)N2CCCCC2)cc(O)c1O ... 13 µM
O=C(O)c1cccc(OCc2ccc(F)cc2)c1O ... > 100 µM
CS(=O)(=O)Nc1cc(O)c(O)c(C(=O)NCc2ccc(F)cc2)c1 ... 34 µM
CC(C)(C)NS(=O)(=O)c1cc(O)c(O)c(C(=O)NCc2ccc(F)cc2)c1 ... 8 µM
O=C(NCc1cccs1)c1cccc(O)c1O ... 12 µM
O=C(NCc1ccc(F)cc1)c1cccc(O)c1O ... 35 µM
CN(C)Cc1ccc(C(=O)NCc2ccc(F)cc2)c(O)c1O ... 20 µM
O=C(NCc1ccc(-c2cccs2)cc1)c1cccc(O)c1O ... 21 µM
CC(=O)Nc1cc(O)c(O)c(C(=O)NCc2ccc(F)cc2)c1 ... 14 µM

Please go through the list and note IC50 for each compound.
1. O=C(O)c1ccc(OCc2ccc(F)cc2)cc1O
2. O=C(NCC1CCCCC1)c1cc(S(=O)(=O)N2CCCCC2)cc(O)c1O

["> 100 µM", "19 µM"]

====

For each record, write down the corresponding CC50 at 72 h.
ASSAY TEXT: Cytotoxicity against human NCI-H630 cells after 72 hrs by MTT assay
Format: cell-based
MEASUREMENT SETUP: NCI-H630 cells

O=C(O)c1c(O)cccc1OCc1ccc2ccccc2c1 ... > 40 µM

Give CC50 at 72 h for each listed item.
1. O=C(NCc1cccs1)c1cccc(O)c1O
2. O=C(Nc1ccc2[nH]ccc2c1)c1cccc(O)c1O
3. O=C(NCC1CCCCC1)c1cc(S(=O)(=O)N2CCCCC2)cc(O)c1O
4. N#Cc1cc(O)c(O)c(C(=O)NCc2ccc(F)cc2)c1

["> 40 µM", "> 40 µM", "> 40 µM", "> 10 µM"]

Dear colleague, could you send me CC50 at 72 h for each of the items below? Thanks.
1. O=C(NCc1ccc(F)c(F)c1)c1cccc(O)c1O
2. O=C(O)c1cc(OCc2ccccc2)ccc1O
3. O=C(O)c1cccc(OCc2ccccc2)c1O
4. Nc1cccc(C(=O)NCc2ccco2)c1O

1. > 40 µM
2. > 40 µM
3. > 40 µM
4. > 25 µM

Report CC50 at 72 h for every entry below.
1. CNC(=O)Cc1ccccc1CNC(=O)c1cccc(O)c1O
2. O=C(O)c1ccc(OCc2ccccc2)cc1O
3. O=C(NCc1ccc(F)cc1)c1cccc(O)c1O
4. CC(=O)Nc1cc(O)c(O)c(C(=O)NCc2ccc(F)cc2)c1

1. > 40 µM
2. > 40 µM
3. > 40 µM
4. < 10 µM

====

Please go through the items and note down their IC50.
ASSAY TEXT: Inhibition of HIV1 His6-tagged integrase-LEDGF/p75 interaction after 30 mins by AlphaScreen assay
One number for each entry, in µM.

Solved cases (4 shown):
Nc1cccc(C(=O)NCc2ccco2)c1O ... 51
O=C(NCc1ccco1)c1cccc(O)c1O ... 89
O=C(NCc1cccs1)c1cccc(O)c1O ... 95
O=C(Nc1ccc2[nH]ccc2c1)c1cccc(O)c1O ... 88

Field: IC50. Fill in for each record below.
1. O=C(NCc1ccc(F)c(F)c1)c1cccc(O)c1O
2. CC(C)(C)NS(=O)(=O)c1cc(O)c(O)c(C(=O)NCc2ccc(F)cc2)c1
3. O=C(NCc1cccc2ccccc12)c1cccc(O)c1O

[56, 100, 34]

Please state IC50 for every molecule in the list that follows.
1. COc1cc(S(=O)(=O)N2CCCCC2)cc(C(=O)NCc2ccco2)c1O
2. O=C(NCc1ccc2[nH]ccc2c1)c1cccc(O)c1O
3. O=C(NCC1CCCCC1)c1cc(S(=O)(=O)N2CCCCC2)cc(O)c1O
4. O=C(NCCc1c[nH]c2ccccc12)c1cccc(O)c1O

[13, 45, 8, 63]

Supply measured IC50 of `CS(=O)(=O)Nc1cc(O)c(O)c(C(=O)NCc2ccc(F)cc2)c1` in your reply.
100

====

SYSTEM TESTED: Human immunodeficiency virus type 1 integrase (Human immunodeficiency virus 1)
ASSAY TEXT: Inhibition of wild-type HIV1 integrase strand transfer activity using [32P]-5'-end-labeled 5'-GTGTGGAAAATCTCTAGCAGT-3' as substrate after 1 hr
Would you mind telling me the reported IC50 of each entry?
Give bare numbers, in µM.

O=C(NCCc1c[nH]c2ccccc12)c1cccc(O)c1O ... 100

Kindly review the next compound as well.
Output IC50 of `O=C(NCc1cccc2ccccc12)c1cccc(O)c1O`
26
